- TARGET UNDER TEST: CD33 antigen (human) (UniProt P20138)
- ASSAY TEXT: competition with 125I-labelled native antibody on HEL 92.1.7 cells; IC50 (reference) / IC50 (sample)

BINDER	Rel. Affinity
Conjugate of 3-(2-oxoethoxy)benzoic acid (6) condensed with Calicheamicin N-acetyl gamma dimethyl hydrazide and h-P67.6 (antibody, V domains shown, drug-linker amide on lysine side chains, sites not stated; drug-linker amide on lysine side chains, sites not stated) VH: EVQLVQSGAEVKKPGSSVKVSCKASGYTITDSNIHWVRQAPGQSLEWIGYIYPYNGGTDYNQKFKNRATLTVDNPTNTAYMELSSLRSEDTDFYYCVNGNPWLAYWGQGTLVTVSS VL: DIQLTQSPSTLSASVGDRVTITCRASESLDNYGIRFLTWFQQKPGKAPKLLMYAASNQGSGVPSRFSGSGSGTEFTLTISSLQPDDFATYYCQQTKEVPWSFGQGTKVEVKR	1.19
Conjugate of 4-4-(4-fluorobenzoyl)phenoxy!butanoic acid (21) condensed with Calicheamicin N-acetyl gamma, dimethyl hydrazide and h-P67.6 (antibody, V domains shown, drug-linker amide on lysine side chains, sites not stated; drug-linker amide on lysine side chains, sites not stated) VH: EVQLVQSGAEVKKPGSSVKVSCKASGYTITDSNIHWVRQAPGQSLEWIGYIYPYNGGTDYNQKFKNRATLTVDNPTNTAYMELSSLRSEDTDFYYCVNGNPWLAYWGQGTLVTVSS VL: DIQLTQSPSTLSASVGDRVTITCRASESLDNYGIRFLTWFQQKPGKAPKLLMYAASNQGSGVPSRFSGSGSGTEFTLTISSLQPDDFATYYCQQTKEVPWSFGQGTKVEVKR	0.76
Conjugate of 4-2-(4-acetylphenyl)amino!methyl!-6-methoxyphenoxy!butanoic acid (28) condensed with Calicheamicin N-acetyl gamma dimethyl hydrazide and h-P67.6 (antibody, V domains shown, drug-linker amide on lysine side chains, sites not stated; drug-linker amide on lysine side chains, sites not stated) VH: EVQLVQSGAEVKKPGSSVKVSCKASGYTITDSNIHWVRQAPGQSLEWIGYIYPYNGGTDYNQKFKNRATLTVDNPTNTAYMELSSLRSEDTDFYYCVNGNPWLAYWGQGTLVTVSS VL: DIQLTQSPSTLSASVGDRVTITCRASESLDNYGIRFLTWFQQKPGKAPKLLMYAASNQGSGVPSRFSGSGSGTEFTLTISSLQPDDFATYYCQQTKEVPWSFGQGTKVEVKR	0.85
Conjugate of 2-acetyl-10H-phenothiazine-10-hexanoic acid (32) condensed with Calicheamicin N-acetyl gamma dimethyl hydrazide and h-P67.6 (antibody, V domains shown, drug-linker amide on lysine side chains, sites not stated; drug-linker amide on lysine side chains, sites not stated) VH: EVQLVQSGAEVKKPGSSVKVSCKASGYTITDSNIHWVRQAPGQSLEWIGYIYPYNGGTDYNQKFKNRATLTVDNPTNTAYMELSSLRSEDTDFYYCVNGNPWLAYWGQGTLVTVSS VL: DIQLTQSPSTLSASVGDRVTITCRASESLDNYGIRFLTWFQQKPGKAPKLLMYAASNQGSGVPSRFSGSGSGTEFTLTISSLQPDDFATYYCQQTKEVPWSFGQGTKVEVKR	1.25
Conjugate of 4-(4-acetyl-2-methylphenoxy)butanoic acid (10) condensed with Calicheamicin N-acetyl gamma dimethyl hydrazide and h-P67.6 (antibody, V domains shown, drug-linker amide on lysine side chains, sites not stated; drug-linker amide on lysine side chains, sites not stated) VH: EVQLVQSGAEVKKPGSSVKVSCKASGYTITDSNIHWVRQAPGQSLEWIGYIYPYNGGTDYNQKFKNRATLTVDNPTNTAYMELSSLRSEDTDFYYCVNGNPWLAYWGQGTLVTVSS VL: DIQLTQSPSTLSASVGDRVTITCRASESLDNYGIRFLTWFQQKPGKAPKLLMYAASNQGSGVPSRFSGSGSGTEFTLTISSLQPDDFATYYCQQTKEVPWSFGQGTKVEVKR	1.16
